// data source = patent US5444061A

Tested on: L1210 cell line
Experiment: Inhibition of growth of the leukaemia cell line L1210 in cell culture
Assay type: cell-based
Details: Mus musculus
Source text: The test may be similar to that described in UK Patent Specification No. 2065653B; and […]
pIC50: −log10 of the molar value.
value_kind: pIC50

Ask | Which pIC50 value belongs to `C#CCN(Cc1ccc2nc(C)[nH]c(=O)c2c1)c1ccc(C(=O)N[C@H](CCC(=O)N[C@@H](CCC(=O)O)C(=O)O)C(=O)O)cc1` ?
Reply | 5.47

Ask | Which pIC50 value belongs to `C#CCN(Cc1ccc2nc(C)nc(O)c2c1)c1ccc(C(=O)N[C@@H](CCC(=O)N[C@H](CCC(=O)O)C(=O)O)C(=O)O)cc1` ?
Reply | 6.74

P = C#CCN(Cc1ccc2nc(C)nc(O)c2c1)c1ccc(C(=O)N[C@@H](CCC(=O)N[C@@H](CCC(=O)O)C(=O)O)C(=O)O)cc1
Q = C#CCN(Cc1ccc2nc(C)nc(O)c2c1)c1ccc(C(=O)N[C@H](CCC(=O)N[C@H](CCC(=O)O)C(=O)O)C(=O)O)cc1
Ask | Looking at P and Q , which one comes out lower in pIC50 terms? // return label of chosen record
Reply | Q

* * *

assay: In vivo stability to cleavage of the central amide linkage of the dipeptide (i.p., mice); design: species or system mouse (male C57/DBA2 F1 hybrid); settings: 100 mg/kg i.p., 1 hour, based on dipeptide and cleavage product found in plasma and liver
value_kind: Stability (cleavage of the central amide linkage of the dipeptide)

Ask | Which Stability (cleavage of the central amide linkage of the dipeptide) value belongs to `C#CCN(Cc1ccc2nc(C)nc(O)c2c1)c1ccc(C(=O)N[C@@H](CCC(=O)N[C@H](CCC(=O)O)C(=O)O)C(=O)O)cc1` ?
Reply | not cleaved

Ask | Which Stability (cleavage of the central amide linkage of the dipeptide) value belongs to `C#CCN(Cc1ccc2nc(C)nc(O)c2c1)c1ccc(C(=O)N[C@H](CCC(=O)N[C@H](CCC(=O)O)C(=O)O)C(=O)O)cc1` ?
Reply | not cleaved

Ask | Which Stability (cleavage of the central amide linkage of the dipeptide) value belongs to `C#CCN(Cc1ccc2nc(C)[nH]c(=O)c2c1)c1ccc(C(=O)N[C@H](CCC(=O)N[C@@H](CCC(=O)O)C(=O)O)C(=O)O)cc1` ?
Reply | cleaved

Ask | Which Stability (cleavage of the central amide linkage of the dipeptide) value belongs to `C#CCN(Cc1ccc2nc(C)nc(O)c2c1)c1ccc(C(=O)N[C@@H](CCC(=O)N[C@@H](CCC(=O)O)C(=O)O)C(=O)O)cc1` ?
Reply | cleaved
